Recorded values, source paper PMC9133036.

Biological target: OX2R Y354A (Homo sapiens, UniProt O43614, Y354A)
Sequence (O43614 whole entry Y354A): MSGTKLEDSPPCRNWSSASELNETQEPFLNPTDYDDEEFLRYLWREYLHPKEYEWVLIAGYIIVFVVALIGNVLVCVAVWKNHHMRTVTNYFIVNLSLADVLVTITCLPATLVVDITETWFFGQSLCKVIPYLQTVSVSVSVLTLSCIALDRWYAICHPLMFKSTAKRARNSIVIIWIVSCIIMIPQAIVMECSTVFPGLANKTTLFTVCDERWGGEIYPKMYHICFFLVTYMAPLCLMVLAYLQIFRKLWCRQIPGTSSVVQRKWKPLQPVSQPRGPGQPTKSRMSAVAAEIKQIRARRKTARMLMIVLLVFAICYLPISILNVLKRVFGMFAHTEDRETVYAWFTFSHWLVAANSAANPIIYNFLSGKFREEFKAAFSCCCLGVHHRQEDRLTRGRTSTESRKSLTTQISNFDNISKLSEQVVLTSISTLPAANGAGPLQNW
Sequence (P32121 whole entry partner): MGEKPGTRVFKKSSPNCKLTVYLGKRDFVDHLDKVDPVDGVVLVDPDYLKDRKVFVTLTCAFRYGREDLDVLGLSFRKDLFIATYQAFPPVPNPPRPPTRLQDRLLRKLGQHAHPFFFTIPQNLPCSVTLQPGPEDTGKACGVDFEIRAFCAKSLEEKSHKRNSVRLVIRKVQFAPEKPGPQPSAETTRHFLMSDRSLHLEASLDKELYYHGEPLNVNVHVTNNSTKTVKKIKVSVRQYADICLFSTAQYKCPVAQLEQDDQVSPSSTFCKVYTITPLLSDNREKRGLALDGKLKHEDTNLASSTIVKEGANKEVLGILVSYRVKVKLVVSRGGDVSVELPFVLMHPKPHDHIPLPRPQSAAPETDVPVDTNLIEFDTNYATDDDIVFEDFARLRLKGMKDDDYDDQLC
Assay: β-arrestin PathHunter assay, OX2R Y354A
Settings: β-arrestin recruitment
READOUT KIND: EC50 (nM)
Answer format: numeric, nM implied, no suffix.

Request: # EC50 lookup, item COC(=O)N1CCC[C@H](NS(C)(=O)=O)[C@@H]1CO[C@H]1CC[C@@H](c2ccccc2)CC1
Result: 2400

----------
Target: OX2R K327A (Homo sapiens, UniProt O43614, K327A)
Sequence (O43614 whole entry K327A): as the sequence (O43614 whole entry Y354A) above, with K327A, A354Y counted along it
Assay: β-arrestin PathHunter assay, OX2R K327A
Settings: β-arrestin recruitment
READOUT KIND: pEC50
Please report pEC50 as the negative decimal logarithm of the molar concentration, giving only the number.

Request: # pEC50 lookup, item COC(=O)N1CCC[C@H](NS(C)(=O)=O)[C@@H]1CO[C@H]1CC[C@@H](c2ccccc2)CC1
Result: 5.64
